Test system: Hs578T
procedure-details: normalised response (% of control), CellTox Green; higher = less cell death (100 = DMSO, 0 = benzethonium chloride kill control)
test-parameters: incubation time: 72 h
Tag: 1 if measured normalised response is not below 80%, -1 if it is.

>>> print(df.to_string())
                                    compound  label_class
 0  COc1cc2/c(=N/c3ccc(Br)cc3F)nc[nH]c2cc1OCC1CCN(C)CC1 [Vandetanib] (100 nM)            1
 1  COCC1(CO)C(=O)C2CCN1CC2 (stereo unspecified) [Prima-1 Met] (10000 nM)            1
 2  Cc1cc(Nc2cc(CN3CCOCC3)c3nc(C)c(Cc4ccc(Cl)cc4F)n3n2)n[nH]1 [Gandotinib] (10000 nM)           -1
 3  Cc1[nH]c2ccccc2c1CCNCc1ccc(/C=C/C(=O)NO)cc1 [Panobinostat] (100 nM)           -1
 4  N#Cc1ccc(COC[C@H]2O[C@@H](n3c(NCc4ccc(Cl)c(Cl)c4)nc4c(N)ncnc43)[C@H](O)[C@@H]2O)cc1 (10000 nM)            1
 5  Cc1ccc(NC(=O)c2ccc(CN3CCN(C)CC3)cc2)cc1Nc1nc(-c2cccnc2)cs1 [Masitinib] (10000 nM)           -1
 6  O=C(/C=C/c1cccc(S(=O)(=O)Nc2ccccc2)c1)NO [Belinostat] (100 nM)            1
 7  Oc1ccc2c(c1)CC[C@H](c1ccccc1)[C@@H]2c1ccc(OCCN2CCCC2)cc1 [Lasofoxifene] (100 nM)            1
 8  c1ccc2c(CCNc3ccc(Nc4ccncc4)cc3)c[nH]c2c1 [Serdemetan] (1000 nM)            1
 9  CCc1c2c(nc3ccc(OC(=O)N4CCC(N5CCCCC5)CC4)cc13)-c1cc3c(c(=O)n1C2)COC(=O)[C@]3(O)CC [Irinotecan] (100 nM)           -1
10  COc1cc(OC2CCN(C)CC2)ccc1Nc1ncc2c(n1)n(C1CCCC1)c(=O)n2C [AZ 3146] (10000 nM)            1
11  COc1cc2ncnc(Nc3ccc(F)c(Cl)c3)c2cc1OCCCN1CCOCC1 [Gefitinib] (10000 nM)            1
12  COCC1(CO)C(=O)C2CCN1CC2 (stereo unspecified) [Prima-1 Met] (100 nM)            1
13  CNC(=O)c1cc(Oc2ccc(NC(=O)Nc3ccc(Cl)c(C(F)(F)F)c3)c(F)c2)ccn1 [Regorafenib] (1000 nM)            1
14  O=P1(N(CCCl)CCCl)NCCCO1 (stereo unspecified) [Cyclophosphamide] (40000 nM)           -1
